Answer each item with its documented RP-LC retention time.
# experiment-notes: gradient 5% acetonitrile 3 min, to 50% in 2 min, to 85% in 15 min, held 3 min, 100 µL/min
# measurement-setup: column: Zorbax Extend-C18 2.1 x 50 mm; eluents: water / acetonitrile, 0.1% formic acid
The figure you give is taken to be in s; do not add the unit.

Enquiry: Entry Cc1nc(C)c(C(=O)N2CCC(n3c(C)cnc3C3CCC3)CC2)s1 : reported RP-LC retention time = ?
Return: 580

Enquiry: Entry CCCNC(=O)c1nc(C)n(C2CCN(S(C)(=O)=O)CC2)c1C : reported RP-LC retention time = ?
Return: 542

Enquiry: Entry CC(C)CN1CCn2cc(C(=O)NCc3ccc(F)cc3Cl)nc2C1 : reported RP-LC retention time = ?
Return: 646

Enquiry: Entry O=C(NCc1ccccn1)C(=O)Nc1ccc2c(c1)OCO2 : reported RP-LC retention time = ?
Return: 579

Enquiry: Entry O=C(NCCn1nnc2cc(C(=O)N3CCCC3)ccc21)Nc1ccccc1Cl : reported RP-LC retention time = ?
Return: 892

Enquiry: Entry O=C(Nc1ccc(F)cc1F)c1c(O)c2cccnc2n(-c2ccccc2)c1=O : reported RP-LC retention time = ?
Return: 1250

Enquiry: Entry CCc1ccc(NC(=O)C2CCN(C(=O)C3Sc4ccccc4NC3=O)CC2)cc1 (centres undefined) : reported RP-LC retention time = ?
Return: 760

Enquiry: Entry Cc1ccc(Cl)cc1N1CCN(S(=O)(=O)c2nn(C)cc2C(=O)NCCN(C)C)CC1 : reported RP-LC retention time = ?
Return: 732

Enquiry: Entry Cc1nc(C(=O)N2CC(F)(F)C[C@H]2c2nc(C3CC3)no2)co1 : reported RP-LC retention time = ?
Return: 768
